The following compounds are shown together with reported Ratio of OA peak area in ATF with and without sPLA2 values.
Target: recombinant human PLA2G2A (sPLA2) (Homo sapiens)
Construct: purchased Creative BioMart PLA2G2A-669H
Experiment: Oleic acid release from phospholipid-loaded stenfilcon A lenses in ATF with and without sPLA2 (digestion assay, LCMS)
Type: biochemical
Conditions: 35±2° C., 4 hours
Counter-ions that a name gives are not always drawn.
I only need the number, thanks.

[
  {
    "Compound": "CCCCCCCC/C=C\\CCCCCCCC(=O)OC[C@H](COP(=O)(O)OCCN)OC(=O)CCCCCCC/C=C\\CCCCCCCC",
    "Study system": "recombinant human PLA2G2A (sPLA2) (Homo sapiens)",
    "Value": 4.6
  },
  {
    "Compound": "CCCCCCCC/C=C\\CCCCCCCC(=O)OC[C@H](COP(=O)(O)OC[C@H](N)C(=O)O)OC(=O)CCCCCCC/C=C\\CCCCCCCC [DOPS, (sodium salt)]",
    "Study system": "recombinant human PLA2G2A (sPLA2) (Homo sapiens)",
    "Value": 16.4
  },
  {
    "Compound": "CCCCCCCC/C=C\\CCCCCCCC(=O)OC[C@H](COP(=O)([O-])OCC[N+](C)(C)C)OC(=O)CCCCCCC/C=C\\CCCCCCCC [DOPC, 1,2-dioleoyl-sn-glycero-3-phosphocholine, reference compound]",
    "Study system": "recombinant human PLA2G2A (sPLA2) (Homo sapiens)",
    "Value": 1.2
  }
]

Exam item: Which Ratio of OA peak area in ATF with and without sPLA2 is listed for CCCCCCCC/C=C\CCCCCCCC(=O)OC[C@H](COP(=O)([O-])OCC(O)CO)OC(=O)CCCCCCC/C=C\CCCCCCCC.[Na+] (mixture of isomers) ?
Marked response: 279

====

Target: recombinant human PLA2G2A (sPLA2) (Homo sapiens, UniProt P14555)
Construct: purchased Creative BioMart PLA2G2A-669H
Sequence (P14555 21-144): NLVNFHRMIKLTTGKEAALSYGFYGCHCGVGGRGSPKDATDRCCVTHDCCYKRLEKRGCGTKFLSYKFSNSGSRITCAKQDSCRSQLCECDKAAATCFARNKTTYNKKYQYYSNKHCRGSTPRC
Assay: Oleic acid release from phospholipid-loaded stenfilcon A lenses in ATF with and without sPLA2 (digestion assay, LCMS)
Format: biochemical
Conditions: ATF with 50 ppm recombinant human PLA2G2A; 4 mm piece of loaded stenfilcon A lens, 100 μL, 35±2° C., 4 hours
Counter-ions that a name gives are not always drawn.
Quantity kind: Oleic acid peak area in ATF + sPLA2
Keep the answer to the number alone.

Answered examples (3):
[
  {
    "Compound": "CCCCCCCC/C=C\\CCCCCCCC(=O)OC[C@H](COP(=O)(O)OCCN)OC(=O)CCCCCCC/C=C\\CCCCCCCC [DOPE]",
    "Oleic acid peak area in ATF + sPLA2": 2127
  },
  {
    "Compound": "CCCCCCCC/C=C\\CCCCCCCC(=O)OC[C@H](COP(=O)([O-])OCC(O)CO)OC(=O)CCCCCCC/C=C\\CCCCCCCC.[Na+] (mixture of isomers) [DOPG]",
    "Oleic acid peak area in ATF + sPLA2": 9958
  },
  {
    "Compound": "CCCCCCCC/C=C\\CCCCCCCC(=O)OC[C@H](COP(=O)(O)OC[C@H](N)C(=O)O)OC(=O)CCCCCCC/C=C\\CCCCCCCC [DOPS, (sodium salt)]",
    "Oleic acid peak area in ATF + sPLA2": 1437
  }
]

Exam item: Which Oleic acid peak area in ATF + sPLA2 reading was recorded for the compound CCCCCCCC/C=C\CCCCCCCC(=O)OC[C@H](COP(=O)([O-])OCC[N+](C)(C)C)OC(=O)CCCCCCC/C=C\CCCCCCCC [DOPC, 1,2-dioleoyl-sn-glycero-3-phosphocholine, reference compound] ?
Marked response: 125
